# System: IGROV1 ovarian
# Assay Method Text: NCI tumour cell line growth inhibition, 48 h; in the data active means GI50 below about 0.43 µM; inactive means the rest
Labels: t for active, f for inactive

| Smiles Structure | Class Name |
| --- | --- |
| O=C(c1ccco1)c1c(C(F)(F)F)nc2ccc(Cl)cc2[n+]1[O-] | f |
| CC(=O)Nc1ccc(-c2csc(Nc3cccc(-c4csc(C)n4)c3)n2)cc1 | f |
| CC(C)(/C=C(\C#N)C(=O)N1CCC[C@@H](n2nc(-c3ccc(Oc4ccccc4)cc3F)c3c(N)ncnc32)C1)N1CCN(C2COC2)CC1 | f |
| Cc1nnc(Nc2ccc(NC(=O)Nc3ccc(Cl)cc3)cc2)c2ccccc12 | f |
| CN(C)C1CCN(C(=O)c2ccc(NC(=O)Nc3ccc(-c4nc(N5CCOCC5)c5cccn5n4)cc3)cc2)CC1 | t |
| CNCCOC(=O)/C=C1\CC[C@H]2[C@@H]([C@@H](O)C(=O)[C@@H]3[C@]2(C)CC[C@H](O)[C@]3(C)C(=O)OC)[C@H]1C | f |
| CN1CCN(c2ccc(Nc3cc(-c4cccc(-n5ccc6cc(C7CC7)cc(F)c6c5=O)c4CO)cn(C)c3=O)nc2)CC1 | f |
| Clc1cc2c(c(CSc3nc4ccccc4n4cccc34)c1)OCOC2 | f |

----------
# System: KM12 colon
# Assay Method Text: NCI tumour cell line growth inhibition, 48 h
Observed Property: TGI

| Compound | Observed Property | Result |
| --- | --- | --- |
| O=C1NC(N2CCOCC2)=N/C1=C\c1ccco1 | TGI | > 100 µM |
| O=C(O)COc1ccccc1C(=O)Nc1ccccc1 | TGI | > 100 µM |
| O=C(O)c1ccccc1CC(Cc1ccc2c(c1)CCC2)C(=O)O (stereo not given) | TGI | > 100 µM |
| COc1cc(N(CCC#N)CCC#N)ccc1/C(N=Nc1ccc(Cl)cc1)=N/NC(=O)c1cc(Br)ccc1O | TGI | 129 µg/mL |
| O=[N+]([O-])C(=C(Nc1cccc2cccnc12)Nc1cccc2cccnc12)C(Cl)=C(Cl)Cl | TGI | > 100 µM |

----------
# Test system: SK-OV-3 ovarian
# Assay Method Text: NCI tumour cell line growth inhibition, 48 h
TGI values for the compounds below.
Observed Property: TGI

| Smiles Structure | Result |
| --- | --- |
| COc1cc(OC)c2c(=O)cc(-c3ccc(OC)c(OC)c3OC)oc2c1 | > 100 µM |
| CCCCCCCCCCCCCCCCNc1cccc2ccccc12 | > 100 µM |
| CCOC(=O)c1ccc(/C(C)=N/NC(N)=S)cc1 | > 100 µM |
| O=C(O)CN1CCN2CCCCCN(CC1)CCN(CC(=O)O)CC2 | > 100 µM |
| CC(=O)Nc1ccc(-c2csc(Nc3cccc(-c4csc(C)n4)c3)n2)cc1 | 19.1 µM |
| Nc1ncc(-c2ccc3ncnc(Nc4ccc(F)c(Cl)c4)c3c2)cn1 | 3.96 µM |

----------
# Test system: A498 renal
# Assay Method Text: NCI tumour cell line growth inhibition, 48 h
Known log10(TGI) of a selection of molecules
Observed Property: log10(TGI) (log10 of the value in µM)

| Molecule | Numeric Readout |
| --- | --- |
| CN1CCC(=O)/C(=C/c2ccccc2)C1 | 1.52 |
| CN(C)CC[C@H](CSc1ccccc1)Nc1ccc(S(=O)(=O)NC(=O)c2ccc(N3CCN(Cc4ccccc4-c4ccc(Cl)cc4)CC3)cc2)cc1[N+](=O)[O-] | -0.09 |
| CCOC(=O)Nc1cc2c(c(N)n1)N=C(c1ccccc1)CO2 | 0.84 |
| CCCNc1ncnc2c1ncn2C | 1.98 |
| CNc1cc2c(c3ccccc13)C(CCl)CN2C(=O)c1cc2cc(OC)c(OC)c(OC)c2[nH]1 (stereo unspecified) | -2.12 |
| COc1ccc(-c2nc(SCC(=O)NNC(=S)Nc3ccccc3)[nH]c2-c2ccc(OC)cc2)cc1 | 1.68 |
| C=C1C(=O)CC2C1CC(=O)/C(C)=C/CCC(C)(O)C2O (stereo unspecified) | 1.68 |
| N=c1c2c(-c3ccccc3)c(-c3ccccc3)n(Cc3ccccc3)c2ncn1C1CCC(O)CC1 (stereo unspecified) | 1.16 |
| Cc1nnc(Nc2ccc(NC(=O)Nc3ccc(Cl)cc3)cc2)c2ccccc12 | 1.02 |
| CCCC(=O)Nc1cn(COC)c(C(=O)N2C[C@@H]3C[C@]34C2=CC(=O)c2[nH]cc(C)c24)n1 | 1.26 |
